System: cFos mRNA
test: cFos mRNA induction in cortex of wild-type mice (PK-PD)
Assay type: in vivo, C57BL/6J male mice
applied.conditions: 10 mg/kg ip, one hour after administration
measurement.name: %↑cFOS mRNA cortex (10 mg/kg ip) (%)

| compound | u | reading |
| --- | --- | --- |
| COC(=O)C1=C(CF)NC2=C(C(=O)OC2)[C@H]1c1ccccc1OC(F)F (single isomer, unassigned) | % | 525 |
| COC(=O)C1=C(CF)NC2=C(C(=O)OC2)[C@H]1c1cc(F)cc(F)c1C1CC1 (single isomer, unassigned) | % | 444 |
| COC(=O)C1=C(CF)NC2=C(C(=O)OC2)[C@H]1c1cc(F)cc(F)c1C(F)F (single isomer, unassigned) | % | 280 |
| COC(=O)C1=C(CF)NC2=C(C(=O)OC2)[C@H]1c1cccc(F)c1C(F)F (single isomer, unassigned) | % | 294 |

* * *

experimental.target: human CaV1.2 (Homo sapiens)
Construct: expressed in transfected cells; host or cells: Flp-In 293 T-Rex (HEK293), monoclonal CaV1.2-HEK293(AUX) clone 2-19B; doxycycline-induced auxiliary subunits
test: Sophion QPatch dose-response assay, whole-cell voltage clamp of barium currents in CaV1.2-HEK293(AUX) cells
Assay type: cell-based
applied.conditions: Table 9; 6-point dose response, 10 determinations per concentration; n = 1 unless * n = 2
Description: The monoclonal CaV1.2-HEK293(AUX) cell line constitutively expresses human CaV1.2 alpha1C (α1C) subunit (CACNA1C) and has doxycycline-inducible expression of the alpha2delta (α2Δ2) auxiliary subunit (CACNA2D2) and beta2 (02) auxiliary subunit (CACNB2). To generate the cell line, expression vectors pcDNA5.0/FRT-TO-CACNA2D2-FCS-P2A-CACNB2 and pCMV6-entry-CACNA1C were established via gene synthesis and cloning. […]
We label by threshold. Values of EC50 strictly beneath 60 nM are criterion met. Values of 60 nM and up are criterion not met.

| molecule | experimental.target | class.assignment |
| --- | --- | --- |
| COC(=O)C1=C(CF)NC2=C(C(=O)OC2)[C@H]1c1cccc(F)c1[C@H]1CC1(F)F (single isomer, unassigned) | human CaV1.2 (Homo sapiens) | criterion met |
| COC(=O)C1=C(CF)NC2=C(C(=O)OC2)[C@H]1c1ccccc1OC(F)F (single isomer, unassigned) | human CaV1.2 (Homo sapiens) | criterion not met |
| COC(=O)C1=C(CF)NC2=C(C(=O)OC2)[C@H]1c1cc(F)ccc1C(F)(F)F (single isomer, unassigned) | human CaV1.2 (Homo sapiens) | criterion not met |
| COC(=O)C1=C(CF)NC2=C(C(=O)CC2)[C@H]1c1cc(F)cc(F)c1[C@H](C)F (single isomer, unassigned) | human CaV1.2 (Homo sapiens) | criterion met |
| CCc1ccccc1[C@H]1C(C(=O)OC)=C(CF)NC2=C1C(=O)OC2 (single isomer, unassigned) | human CaV1.2 (Homo sapiens) | criterion not met |
| COC(=O)C1=C(CF)NC2=C(C(=O)OC2)[C@H]1c1cc(F)cc(F)c1C(F)(F)F (single isomer, unassigned) | human CaV1.2 (Homo sapiens) | criterion met |
| COC(=O)C1=C(CF)NC2=C(C(=O)CC2)[C@H]1c1cccc(F)c1[C@@H](F)CF (single isomer, unassigned) | human CaV1.2 (Homo sapiens) | criterion met |
| COC(=O)C1=C(CF)NC2=C(C(=O)OC2)[C@H]1c1cccc(F)c1[C@@H](C)F (single isomer, unassigned) | human CaV1.2 (Homo sapiens) | criterion met |
| COC(=O)C1=C(CF)NC2=C(C(=O)OC2)[C@H]1c1cc(F)cc(F)c1CC(F)F (single isomer, unassigned) | human CaV1.2 (Homo sapiens) | criterion not met |
| COC(=O)C1=C(CF)NC2=C(C(=O)CC2)[C@H]1c1cccc(F)c1[C@@H](C)F (single isomer, unassigned) | human CaV1.2 (Homo sapiens) | criterion met |
| COC(=O)C1=C(C(F)F)NC2=C(C(=O)OC2)[C@H]1c1cccc(F)c1[C@@H](C)F (single isomer, unassigned) | human CaV1.2 (Homo sapiens) | criterion not met |
| COC(=O)C1=C(CF)NC2=C(C(=O)OC2)[C@H]1c1ccccc1C1CC1 (single isomer, unassigned) | human CaV1.2 (Homo sapiens) | criterion met |
| COC(=O)C1=C(CF)NC2=C(C(=O)OC2)[C@H]1c1cc(F)cc(F)c1C1CC1 (single isomer, unassigned) | human CaV1.2 (Homo sapiens) | criterion met |
| COC(=O)C1=C(CF)NC2=C(C(=O)OC2)[C@H]1c1cc(F)cc(F)c1[C@H]1CC1(F)F (single isomer, unassigned) [Example 3] | human CaV1.2 (Homo sapiens) | criterion met |
| COC(=O)C1=C(CF)NC2=C(C(=O)OC2)[C@H]1c1cc(F)ccc1OC(F)F (single isomer, unassigned) | human CaV1.2 (Homo sapiens) | criterion not met |
| COC(=O)C1=C(CF)NC2=C(C(=O)OC2)[C@H]1c1cccc(F)c1CC(F)F (single isomer, unassigned) | human CaV1.2 (Homo sapiens) | criterion not met |
| COC(=O)C1=C(CF)NC2=C(C(=O)OC2)[C@H]1c1cccc(F)c1C(F)(F)F (single isomer, unassigned) | human CaV1.2 (Homo sapiens) | criterion not met |
| COC(=O)C1=C(CF)NC2=C(C(=O)CC2)[C@H]1c1cccc(F)c1CC(F)(F)F (single isomer, unassigned) | human CaV1.2 (Homo sapiens) | criterion met |
| COC(=O)C1=C(CF)NC2=C(C(=O)OC2)[C@H]1c1cccc(F)c1[C@H](F)CF (single isomer, unassigned) | human CaV1.2 (Homo sapiens) | criterion met |
| COC(=O)C1=C(CF)NC2=C(C(=O)OC2)[C@H]1c1cccc(F)c1C1CC1 (single isomer, unassigned) | human CaV1.2 (Homo sapiens) | criterion met |
| COC(=O)C1=C(CF)NC2=C(C(=O)CC2)[C@H]1c1cccc(F)c1CC(F)F (single isomer, unassigned) | human CaV1.2 (Homo sapiens) | criterion not met |
| COC(=O)C1=C(CF)NC2=C(C(=O)OC2)[C@H]1c1cc(F)ccc1C1CC1 (single isomer, unassigned) | human CaV1.2 (Homo sapiens) | criterion met |
| COC(=O)C1=C(CF)NC2=C(C(=O)OC2)[C@H]1c1cc(F)cc(F)c1C(F)F (single isomer, unassigned) | human CaV1.2 (Homo sapiens) | criterion not met |

* * *

experimental.target: human CaV1.2 (Homo sapiens, UniProt Q13936)
Construct: expressed in transfected cells; host or cells: Flp-In 293 T-Rex (HEK293), monoclonal CaV1.2-HEK293(AUX) clone 2-19B; doxycycline-induced auxiliary subunits
Sequence (Q13936 1-2138 isoform Q13936-23): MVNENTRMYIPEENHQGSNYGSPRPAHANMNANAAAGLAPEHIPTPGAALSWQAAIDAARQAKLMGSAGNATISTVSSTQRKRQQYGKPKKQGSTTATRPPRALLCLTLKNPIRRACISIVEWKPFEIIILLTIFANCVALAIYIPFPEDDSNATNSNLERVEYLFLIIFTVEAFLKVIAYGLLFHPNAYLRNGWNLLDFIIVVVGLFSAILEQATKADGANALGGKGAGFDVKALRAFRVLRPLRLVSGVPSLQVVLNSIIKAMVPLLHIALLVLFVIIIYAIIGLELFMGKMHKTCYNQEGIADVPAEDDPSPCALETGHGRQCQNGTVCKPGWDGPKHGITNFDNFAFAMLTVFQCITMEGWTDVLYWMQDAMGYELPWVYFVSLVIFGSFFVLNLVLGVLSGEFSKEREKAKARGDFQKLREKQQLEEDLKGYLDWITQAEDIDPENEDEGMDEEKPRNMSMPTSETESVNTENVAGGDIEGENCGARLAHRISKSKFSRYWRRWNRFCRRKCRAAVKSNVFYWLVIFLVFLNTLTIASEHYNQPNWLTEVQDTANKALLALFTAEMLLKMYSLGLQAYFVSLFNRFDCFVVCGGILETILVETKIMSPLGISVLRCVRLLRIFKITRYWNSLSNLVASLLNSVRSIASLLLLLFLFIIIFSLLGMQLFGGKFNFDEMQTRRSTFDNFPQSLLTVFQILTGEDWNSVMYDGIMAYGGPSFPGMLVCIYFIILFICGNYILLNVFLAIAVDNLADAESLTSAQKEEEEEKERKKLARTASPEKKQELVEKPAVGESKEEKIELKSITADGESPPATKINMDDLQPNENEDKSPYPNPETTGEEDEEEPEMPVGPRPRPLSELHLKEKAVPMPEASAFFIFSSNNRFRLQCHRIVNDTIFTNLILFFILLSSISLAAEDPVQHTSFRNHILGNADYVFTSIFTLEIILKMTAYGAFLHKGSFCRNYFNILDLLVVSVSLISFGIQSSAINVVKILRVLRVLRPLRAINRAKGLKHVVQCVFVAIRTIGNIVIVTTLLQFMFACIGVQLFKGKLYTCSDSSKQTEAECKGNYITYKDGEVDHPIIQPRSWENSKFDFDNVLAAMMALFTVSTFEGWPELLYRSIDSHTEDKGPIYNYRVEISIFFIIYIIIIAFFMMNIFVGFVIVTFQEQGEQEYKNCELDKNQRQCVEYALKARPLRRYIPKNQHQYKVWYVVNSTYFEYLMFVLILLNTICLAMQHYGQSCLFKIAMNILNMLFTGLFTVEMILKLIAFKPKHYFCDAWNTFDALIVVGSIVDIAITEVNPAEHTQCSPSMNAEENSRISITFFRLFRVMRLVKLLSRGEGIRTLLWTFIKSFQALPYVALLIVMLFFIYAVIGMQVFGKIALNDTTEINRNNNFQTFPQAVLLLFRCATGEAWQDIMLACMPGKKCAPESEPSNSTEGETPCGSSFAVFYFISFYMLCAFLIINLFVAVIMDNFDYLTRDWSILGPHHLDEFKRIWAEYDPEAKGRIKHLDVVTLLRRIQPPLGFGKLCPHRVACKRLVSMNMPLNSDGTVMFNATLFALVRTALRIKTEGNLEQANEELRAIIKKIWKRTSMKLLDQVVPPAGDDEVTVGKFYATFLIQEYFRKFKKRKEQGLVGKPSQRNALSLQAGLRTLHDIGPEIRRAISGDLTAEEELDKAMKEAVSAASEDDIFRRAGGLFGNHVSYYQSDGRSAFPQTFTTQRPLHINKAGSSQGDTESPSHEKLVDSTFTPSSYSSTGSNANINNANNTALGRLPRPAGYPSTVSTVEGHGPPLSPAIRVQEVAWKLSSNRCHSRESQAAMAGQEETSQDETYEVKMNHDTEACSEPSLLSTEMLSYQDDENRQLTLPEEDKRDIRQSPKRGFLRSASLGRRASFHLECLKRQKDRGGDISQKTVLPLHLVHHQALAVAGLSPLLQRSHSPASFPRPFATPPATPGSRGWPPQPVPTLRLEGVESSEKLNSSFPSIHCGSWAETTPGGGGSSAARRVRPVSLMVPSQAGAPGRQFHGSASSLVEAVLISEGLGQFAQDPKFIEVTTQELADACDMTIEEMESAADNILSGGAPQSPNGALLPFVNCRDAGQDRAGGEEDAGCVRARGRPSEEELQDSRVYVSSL
Sequence (Q9NY47 19-1001 partner limits assumed): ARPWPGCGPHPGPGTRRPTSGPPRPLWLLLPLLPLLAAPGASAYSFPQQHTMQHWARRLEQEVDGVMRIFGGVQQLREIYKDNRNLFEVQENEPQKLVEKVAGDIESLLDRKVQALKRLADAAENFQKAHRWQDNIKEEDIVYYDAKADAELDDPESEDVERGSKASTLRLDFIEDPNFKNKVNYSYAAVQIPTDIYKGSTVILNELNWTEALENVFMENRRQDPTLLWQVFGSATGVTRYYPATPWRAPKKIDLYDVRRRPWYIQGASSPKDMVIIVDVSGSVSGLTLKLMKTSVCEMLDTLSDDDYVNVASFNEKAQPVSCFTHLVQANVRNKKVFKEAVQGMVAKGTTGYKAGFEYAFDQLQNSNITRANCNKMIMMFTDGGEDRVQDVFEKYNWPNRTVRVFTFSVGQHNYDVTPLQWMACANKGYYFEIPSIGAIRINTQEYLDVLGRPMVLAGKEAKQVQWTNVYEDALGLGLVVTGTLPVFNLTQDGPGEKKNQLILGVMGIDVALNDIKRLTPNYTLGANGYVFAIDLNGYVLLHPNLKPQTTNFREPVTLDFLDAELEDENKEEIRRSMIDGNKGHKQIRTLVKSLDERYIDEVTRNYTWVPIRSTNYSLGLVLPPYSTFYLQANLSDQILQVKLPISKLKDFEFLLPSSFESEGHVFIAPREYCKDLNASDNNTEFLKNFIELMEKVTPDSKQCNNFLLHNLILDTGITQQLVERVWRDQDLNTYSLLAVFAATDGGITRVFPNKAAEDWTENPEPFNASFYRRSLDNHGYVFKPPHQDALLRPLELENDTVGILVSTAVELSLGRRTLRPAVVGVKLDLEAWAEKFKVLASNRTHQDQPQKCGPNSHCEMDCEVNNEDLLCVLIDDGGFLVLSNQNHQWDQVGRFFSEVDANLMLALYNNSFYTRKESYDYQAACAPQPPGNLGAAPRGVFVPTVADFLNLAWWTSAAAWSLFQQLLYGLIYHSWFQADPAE
Sequence (Q9NY47 1002-1150 partner limits assumed): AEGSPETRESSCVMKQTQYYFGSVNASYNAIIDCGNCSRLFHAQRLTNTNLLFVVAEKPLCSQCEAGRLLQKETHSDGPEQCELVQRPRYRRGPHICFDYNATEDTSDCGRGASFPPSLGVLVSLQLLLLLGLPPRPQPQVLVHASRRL
Sequence (Q08289 whole entry partner): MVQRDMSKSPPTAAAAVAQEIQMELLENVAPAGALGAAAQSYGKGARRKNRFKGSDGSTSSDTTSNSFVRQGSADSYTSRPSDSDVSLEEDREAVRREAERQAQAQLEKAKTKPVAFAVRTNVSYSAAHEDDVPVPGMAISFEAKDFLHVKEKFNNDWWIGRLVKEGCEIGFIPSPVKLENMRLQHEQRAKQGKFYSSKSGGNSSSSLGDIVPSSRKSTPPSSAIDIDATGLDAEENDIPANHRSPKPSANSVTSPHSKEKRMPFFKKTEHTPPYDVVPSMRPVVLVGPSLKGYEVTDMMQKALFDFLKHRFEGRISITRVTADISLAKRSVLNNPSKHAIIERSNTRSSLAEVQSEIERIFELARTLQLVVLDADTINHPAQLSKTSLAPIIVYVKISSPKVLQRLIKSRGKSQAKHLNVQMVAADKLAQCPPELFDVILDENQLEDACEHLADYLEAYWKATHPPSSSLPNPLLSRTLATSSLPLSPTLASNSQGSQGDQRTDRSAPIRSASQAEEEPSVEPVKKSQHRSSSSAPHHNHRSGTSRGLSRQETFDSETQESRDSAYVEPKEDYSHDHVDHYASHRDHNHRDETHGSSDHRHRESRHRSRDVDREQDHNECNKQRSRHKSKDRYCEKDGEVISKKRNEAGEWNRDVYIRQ
test: Sophion QPatch dose-response assay, whole-cell voltage clamp of barium currents in CaV1.2-HEK293(AUX) cells
Assay type: cell-based
applied.conditions: Table 9; 6-point dose response, 10 determinations per concentration; n = 1 unless * n = 2

| compound | u | EC50 |
| --- | --- | --- |
| COC(=O)C1=C(CF)NC2=C(C(=O)OC2)[C@H]1c1cc(F)cc(F)c1[C@H](C)F (single isomer, unassigned) [Example 5] | nM | 20 |
| COC(=O)C1=C(CF)NC2=C(C(=O)OC2)[C@H]1c1ccccc1C(F)(F)F (single isomer, unassigned) [Example 24] | nM | 160 |
| COC(=O)C1=C(CF)NC2=C(C(=O)OC2)[C@H]1c1cc(F)cc(F)c1[C@H]1CC1(F)F (single isomer, unassigned) [Example 4] | nM | 20 |

* * *

Here the recorded %↑cFOS mRNA cortex (3 mg/kg ip) is given for each entry.
Tested on: cFos mRNA
test: cFos mRNA induction in cortex of wild-type mice (PK-PD)
Type: in vivo, C57BL/6J male mice
applied.conditions: 3 mg/kg ip, one hour after administration

| compound | u | %↑cFOS mRNA cortex (3 mg/kg ip) |
| --- | --- | --- |
| COC(=O)C1=C(CF)NC2=C(C(=O)OC2)[C@H]1c1cc(F)cc(F)c1[C@H](F)CF (single isomer, unassigned) [Example 16] | % | 234 |
| COC(=O)C1=C(CF)NC2=C(C(=O)OC2)[C@H]1c1cccc(F)c1[C@H](F)CF (single isomer, unassigned) [Example 6] | % | 199 |
| COC(=O)C1=C(CF)NC2=C(C(=O)CC2)[C@H]1c1cccc(F)c1C1CC1 (single isomer, unassigned) [Example 28] | % | 293 |
| COC(=O)C1=C(CF)NC2=C(C(=O)OC2)[C@H]1c1ccccc1OC(F)F (single isomer, unassigned) [Example 9] | % | 290 |
| COC(=O)C1=C(CF)NC2=C(C(=O)OC2)[C@H]1c1cc(F)cc(F)c1C(F)F (single isomer, unassigned) [Example 18] | % | 173 |
